Provide the recorded IC50 for the entries that follow.
test system: prostate cancer cell lines (e.g. DU145/TXR); assay: Cell based assay, cell viability (CellTiter-Glo), prostate cancer cell lines; settings: Homo sapiens, DU-145, DU145 cells, 72 hours treatment, final concentration 0 to 2 μM, read-out: IC50, prostate cancer cell line DU145

compound	experimental value
CC(=O)c1c(S)[nH]c2c(Br)ccc(Cl)c2c1=O	> 2 µM
COCCNc1ccc(C[S+]([O-])c2[nH]c3c(Br)ccc(Cl)c3c(=O)c2C(C)=O)cn1 (centres unmarked)	> 2 µM
CC(=O)c1c([S+]([O-])Cc2ccc([N+](=O)[O-])cc2)[nH]c2c(Br)ccc(Cl)c2c1=O (centres unmarked)	1.63 µM

Provide IC50 for all items below, preserving their order.
1. CC(=O)c1c([S+]([O-])Cc2ccc(C#N)cc2)[nH]c2c(Br)ccc(Cl)c2c1=O (centres unmarked)
2. CC(=O)c1c([S+]([O-])Cc2ccc(C(F)(F)F)o2)[nH]c2c(F)ccc(F)c2c1=O (centres unmarked)
3. CSc1c(C(C)=O)c(=O)c2cc(F)ccc2n1C

A:
1: > 2 µM; 2: > 2 µM; 3: > 2 µM

Provide IC50 for all items below, preserving their order.
1. CSc1c(C(C)=O)c(=O)c2c(Cl)ccc(Br)c2n1C
2. COc1cc(S(F)(F)(F)(F)F)ccc1C[S+]([O-])c1[nH]c2c(Br)ccc(Cl)c2c(=O)c1C(C)=O (centres unmarked)
3. CC(=O)c1c(SC(C)C)[nH]c2c(Br)ccc(Cl)c2c1=O
4. CC(=O)c1c(S(C)(=O)=O)n(S(=O)(=O)c2ccc(C(C)(C)C)cc2)c2c(Br)ccc(Cl)c2c1=O
5. CSc1c(C(C)=O)c(=O)c2c(Cl)ccc(Br)c2n1S(=O)(=O)c1ccc([N+](=O)[O-])cc1
6. CC(=O)c1c(Sc2ccc(Br)cc2)[nH]c2c(Br)ccc(Cl)c2c1=O
7. CC(=O)c1c([S+](C)[O-])n(Cc2ccc(F)c(Cl)c2)c2c(Br)ccc(Cl)c2c1=O (centres unmarked)

A:
["> 2 µM", "1.02 µM", "> 2 µM", "> 2 µM", "> 2 µM", "> 2 µM", "> 2 µM"]

###

Provide the recorded IC50 for the entries that follow.
test system: blood cancer cell lines (e.g. HL-60, Jurkat, Raji, Ramos, Daudi, MOLT-4); assay: Cell based assay, cell viability (CellTiter-Glo), blood cancer cell lines; conditions: Homo sapiens, blood cancer cell line Raji, 72 hours, read-out: IC50, Raji

Take a look at these entries with their results.
compound	IC50
CC(=O)c1c([S+]([O-])Cc2cc(F)cc(F)c2)[nH]c2c(Br)ccc(Cl)c2c1=O (stereo not shown)	> 2000 nM
CC(=O)c1c([S+]([O-])Cc2nonc2C)[nH]c2c(Br)ccc(Cl)c2c1=O (stereo not shown)	> 2000 nM
CC(=O)c1c([S+](C)[O-])n(Cc2ccc(F)c(Cl)c2)c2c(Br)ccc(Cl)c2c1=O (stereo not shown)	> 2000 nM
CC(=O)c1c([S+]([O-])Cc2ccc(C(C)(C)C)cc2)[nH]c2c(Br)ccc(Cl)c2c1=O (stereo not shown)	> 2000 nM
CC(=O)c1c([S+]([O-])Cc2cccc(C#N)c2)[nH]c2c(Br)ccc(Cl)c2c1=O (stereo not shown)	870 nM

Provide IC50 for all items below, preserving their order.
1. CSc1c(C(C)=O)c(=O)c2c(Cl)ccc(Br)c2n1S(=O)(=O)c1ccc(C(C)(C)C)cc1
2. CC(=O)c1c([S+]([O-])Cc2ccc(-n3cccn3)nc2)[nH]c2c(Br)ccc(Cl)c2c1=O (stereo not shown)
3. CC(=O)c1c([S+]([O-])Cc2ccc(S(F)(F)(F)(F)F)cc2F)[nH]c2c(Br)ccc(Cl)c2c1=O (stereo not shown)
4. CC(=O)c1c([S+]([O-])Cc2ccc(I)cc2)[nH]c2c(Cl)ccc(Cl)c2c1=O (stereo not shown)
5. CSc1c(C(C)=O)c(=O)c2c(Cl)ccc(Br)c2n1C(C)=O

A:
> 2000 nM
1250 nM
1110 nM
1750 nM
> 2000 nM

Provide IC50 for all items below, preserving their order.
1. CC(=O)c1c([S+]([O-])Cc2ccccc2)n(C(=O)c2ccc(Br)cc2)c2c(Br)ccc(Cl)c2c1=O (stereo not shown)
2. CC(=O)c1c(SCc2cccc(C#N)c2)[nH]c2c(Br)ccc(Cl)c2c1=O

A:
1. 1180 nM
2. > 2000 nM

Provide IC50 for all items below, preserving their order.
1. CSc1c(C(C)=O)c(=O)c2c(Cl)ccc(Br)c2n1S(=O)(=O)c1ccc(Cl)cc1
2. CC(=O)c1c(SCc2cccc(F)c2)[nH]c2c(Br)ccc(Cl)c2c1=O
3. CC(=O)c1c(Sc2ccccc2)[nH]c2c(Br)ccc(Cl)c2c1=O
4. COc1cccc2[nH]c([S+]([O-])Cc3cc(C)on3)c(C(C)=O)c(=O)c12 (stereo not shown)

A:
1: > 2000 nM; 2: > 2000 nM; 3: > 2000 nM; 4: > 2000 nM

###

Provide the recorded pIC50 for the entries that follow.
system: breast cancer cell lines (e.g. MDA-MB-231, SK-BR-3, MDA-MB-468, HCC1954); assay: Cell based assay, cell viability (CellTiter-Glo), breast cancer cell lines; conditions: Homo sapiens; JIMT-1 cells; 72 hours treatment; CellTiter-Glo cell viability; read-out: IC50, Breast cancer cell line JIMT-1
pIC50: −log10 of the molar value.

Take a look at these entries with their results.
molecule	pIC50
Cc1cc(C[S+]([O-])c2[nH]c3c(Cl)ccc(Cl)c3c(=O)c2C(=O)C2CC2)no1 (stereo not drawn) [Compound 97]	< 5.00
COC(=O)c1ccc(C[S+]([O-])c2[nH]c3c(Cl)ccc(Cl)c3c(=O)c2C(C)=O)cc1 (stereo not drawn) [Compound 91]	< 5.00
COc1cccc2[nH]c([S+]([O-])Cc3cc(C)on3)c(C(C)=O)c(=O)c12 (stereo not drawn) [Compound 94]	< 5.00
COc1cccc2[nH]c(SCc3ccc(S(F)(F)(F)(F)F)cc3)c(C(C)=O)c(=O)c12 [Compound 92]	< 5.00
COC(=O)c1ccc(C[S+]([O-])c2[nH]c3c(Cl)ccc(Cl)c3c(=O)c2C(C)=O)o1 (stereo not drawn) [Compound 89]	< 5.00

Provide pIC50 for all items below, preserving their order.
1. CC(=O)c1c([S+]([O-])Cc2ccc(NS(C)(=O)=O)cc2)[nH]c2c(Br)ccc(Cl)c2c1=O (stereo not drawn) [Compound 103]
2. COCCNc1ccc(C[S+]([O-])c2[nH]c3c(Br)ccc(Cl)c3c(=O)c2C(C)=O)cn1 (stereo not drawn) [Compound 105]
3. CC(=O)c1c([S+]([O-])Cc2cnc3[nH]ccc3c2)[nH]c2c(Br)ccc(Cl)c2c1=O (stereo not drawn) [Compound 107]
4. CC(=O)c1c([S+]([O-])Cc2ccc(-n3cccn3)nc2)[nH]c2c(Br)ccc(Cl)c2c1=O (stereo not drawn) [Compound 99]

A:
["< 5.00", "< 5.00", "< 5.00", "< 5.00"]

###

system: prostate cancer cell lines (e.g. DU145/TXR); assay: Cell based assay, cell viability (CellTiter-Glo), prostate cancer cell lines; conditions: Homo sapiens, LNcap cells, 72 hours treatment, final concentration 0 to 2 μM, read-out: IC50, prostate cancer cell line LNcap
pIC50: −log10 of the molar value.
property label: pIC50

compound	tested system	pIC50
CSc1c(C(C)=O)c(=O)c2c(Cl)ccc(Br)c2n1C	prostate cancer cell lines (e.g. DU145/TXR)	< 5.70
CC(=O)c1c([S+]([O-])Cc2ccc(S(F)(F)(F)(F)F)cc2)[nH]c2c(Br)ccc(Cl)c2c1=O (centres unmarked)	prostate cancer cell lines (e.g. DU145/TXR)	< 5.70
CC(=O)c1c([S+]([O-])Cc2ccc(Cl)nc2)[nH]c2c(Br)ccc(Cl)c2c1=O (centres unmarked)	prostate cancer cell lines (e.g. DU145/TXR)	< 5.70
CC(=O)c1c(SCc2cccc(I)c2)[nH]c2c(Br)ccc(Cl)c2c1=O	prostate cancer cell lines (e.g. DU145/TXR)	< 5.70
CC(=O)c1c(S/C=C\C(=O)O)[nH]c2c(Br)ccc(Cl)c2c1=O	prostate cancer cell lines (e.g. DU145/TXR)	< 5.70

Provide pIC50 for all items below, preserving their order.
1. CC(=O)c1c(S(C)(=O)=O)n(C(=O)c2ccc(Br)cc2)c2c(Br)ccc(Cl)c2c1=O
2. CSc1[nH]c2ccc(F)cc2c(=O)c1C(C)=O
3. CC(=O)c1c([S+]([O-])Cc2ccccc2)nc2c(Br)ccc(Cl)c2c1O (centres unmarked) [Compound 53]
4. Cc1cc(C[S+]([O-])c2[nH]c3c(Br)ccc(Cl)c3c(=O)c2C(=O)C2CC2)no1 (centres unmarked)

A:
< 5.70
< 5.70
< 5.70
< 5.70

Provide pIC50 for all items below, preserving their order.
1. CC(=O)c1c(SC(C)C)[nH]c2c(Br)ccc(Cl)c2c1=O
2. CCS(=O)(=O)n1c([S+](C)[O-])c(C(C)=O)c(=O)c2c(Cl)ccc(Br)c21 (centres unmarked)
3. CC(=O)c1c([S+]([O-])Cc2cc(C)on2)[nH]c2c(F)ccc(F)c2c1=O (centres unmarked)
4. CC(=O)c1c(Sc2ccc(Br)cc2)[nH]c2c(Br)ccc(Cl)c2c1=O

A:
["< 5.70", "< 5.70", "< 5.70", "< 5.70"]

Provide pIC50 for all items below, preserving their order.
1. Cc1cc(C[S+]([O-])c2[nH]c3c(Br)ccc(Cl)c3c(=O)c2C(=O)C(C)C)no1 (centres unmarked)
2. CC(=O)c1c(S(=O)(=O)Cc2ccccc2)nc2c(Br)ccc(Cl)c2c1O

A:
1. 5.70
2. < 5.70
